Field: MIC. Provide a value for each of the molecules that follow.
System: Pseudomonas aeruginosa
Experiment: Antimicrobial activity against clinical isolate Pseudomonas aeruginosa CCM 1961 after 120 hrs
Type: functional
Details: CCM 1961, 120 h
Give bare numbers, in µM.

Example cases with answers are listed next.
Input line: Which MIC is listed for CCCCCCCCCCCC[n+]1ccc2ccccc2c1 [LAURYL ISOQUINOLINIUM BROMIDE] ?
Output line: 250

Input line: Which MIC is listed for CCCCCCCCCCCCCCCC[N+](C)(C)Cc1ccccc1 ?
Output line: 16

Input line: Which MIC is listed for CCCCCCCCCCCC[N+](C)(C)Cc1ccccc1 ?
Output line: 3.9

// below: MIC requested for another molecule
Input line: Which MIC is listed for CCCCCCCCCCCCCC[n+]1ccc2ccccc2c1 ?
Output line: 63

----------
System: Candida tropicalis
Assay: Antimicrobial activity against Candida tropicalis 156 after 48 hrs by spectrophotometry
Type: functional
Details: Candida tropicalis, 156, 48 h
Field: MFC. Provide a value for each of the compounds that follow.
Give bare numbers, in µM.

Example cases with answers are listed next.
Input line: Which MFC is listed for CCCCCCCCCCCCCCCC[n+]1ccc2c(O)cccc2c1 ?
Output line: 7.8

Input line: Which MFC is listed for CCCCCCCCCCCC[n+]1ccc2c(O)cccc2c1 ?
Output line: 63

Input line: Which MFC is listed for CCCCCCCCCCCCCC[N+](C)(C)Cc1ccccc1 ?
Output line: 125

Input line: Which MFC is listed for CCCCCCCCCC[n+]1ccc2ccccc2c1 ?
Output line: 7.8

Input line: Which MFC is listed for CCCCCCCCCC[n+]1ccc2c(O)cccc2c1 ?
Output line: 500

Provide MFC values for the following items, in order.
1. CCCCCCCCCCCC[N+](C)(C)Cc1ccccc1
2. CCCCCCCCCCCCCCCC[n+]1ccc2ccccc2c1

Output line:
1. 1
2. 2

----------
Tested on: Candida tropicalis
Test: Antimicrobial activity against Candida tropicalis 156 after 48 hrs by spectrophotometry
Assay type: functional
Details: Candida tropicalis, 156, 48 h
assay-endpoint: MFC

Input line: Which MFC is listed for CCCCCCCCCCCCCCCC[N+](C)(C)Cc1ccccc1 ?
Output line: 7.8 µM

Input line: Which MFC is listed for CCCCCCCCCCCCCC[n+]1ccc2ccccc2c1 ?
Output line: 1 µM

Provide MFC values for the following items, in order.
1. CCCCCCCCCCCCCCCCCC[n+]1ccc2ccccc2c1
2. CCCCCCCCCCCCCC[n+]1ccc2c(O)cccc2c1
3. CCCCCCCCCCCC[n+]1ccc2ccccc2c1 [LAURYL ISOQUINOLINIUM BROMIDE]

Output line:
["2 µM", "7.8 µM", "1 µM"]

----------
Tested on: Trichophyton mentagrophytes
Assay: Antimicrobial activity against Trichophyton mentagrophytes 445 after 72 hrs by spectrophotometry
Type: functional
Conditions: Trichophyton mentagrophytes, 445, 72 h
assay-endpoint: log10 MIC (log10 of the value in µM)
Please keep in mind that the values are log10 of MIC expressed in µM.

Input line: Which log10 MIC is listed for CCCCCCCCCCCCCCCC[n+]1ccc2c(O)cccc2c1 ?
Output line: 1.20

Provide log10 MIC values for the following items, in order.
1. CCCCCCCCCCCC[n+]1ccc2c(O)cccc2c1
2. CCCCCCCCCCCCCCCC[n+]1ccc2ccccc2c1

Output line:
1. 1.49
2. 0.30

Provide log10 MIC values for the following items, in order.
1. CCCCCCCCCCCC[n+]1ccc2ccccc2c1 [LAURYL ISOQUINOLINIUM BROMIDE]
2. CCCCCCCCCCCC[N+](C)(C)Cc1ccccc1

Output line:
1: 0.89; 2: 0.00
